Each record here notes measured shrunken log2 fold change.
# Tested on: Escherichia coli TOP10;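 further: peptides expressed intracellularly from a pBAD plasmid library in pooled LB shake-flask culture, induced with 0.3% L-arabinose, DNA abundance read by NGS, three biological replicates, DESeq2 with apeglm shrinkage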
# assayText: shrunken log2 fold change of peptide-encoding DNA abundance (4.5 h post-induction vs induction); higher = less antimicrobial activity (less host growth inhibition)
# conditionParameters: time post-induction: 4.5 h; library: site-saturation at positions 5, 18, 19, 20
Could you respond with only the numeric value?

Example results:
| sequenceInput | assayTarget | shrunken log2 fold change |
| --- | --- | --- |
| RRIRQRPPRLPRPRPRPPIWPRP | Escherichia coli TOP10 | 0.113 |
| RRIRHRPPRLPRPRPRPIPPPRP | Escherichia coli TOP10 | -0.0356 |
| RRIRWRPPRLPRPRPRPECRPRP | Escherichia coli TOP10 | 0.88 |

State its shrunken log2 fold change: `RRIRGRPPRLPRPRPRPNFVPRP`
-0.0668

Write down shrunken log2 fold change measured for item `RRIRERPPRLPRPRPRPHQVPRP`
-0.0847

Output measured shrunken log2 fold change for this item: `RRIRDRPPRLPRPRPRPVQLPRP`
0.0283

For the sequence `RRIRYRPPRLPRPRPRPYMPPRP` , give its measured shrunken log2 fold change value.
-0.00804

Fill in reported shrunken log2 fold change for this entry: `RRIRQRPPRLPRPRPRPMRNPRP`
-0.0579
